assay.explanation: Pharmacokinetics after multiple oral administrations to psoriatic patients for 28 days
Format: in vivo, human
measurement.conditions: human, blood; 5 mg q.d. oral, Day 13, Mean ± SD
quantity: Cmax at 312 h (ng/mL)

1. CC[C@@H]1/C=C(\C)C[C@H](C)C[C@H](OC)[C@H]2O[C@@](O)(C(=O)C(=O)N3CCCC[C@H]3C(=O)O[C@H](/C(C)=C/[C@@H]3CC[C@H](Cl)[C@H](OC)C3)[C@H](C)[C@@H](O)CC1=O)[C@H](C)C[C@@H]2OC [pimecrolimus, 33-epichloro-33-desoxy-ascomycin] | 9.7

* * *

assay.explanation: Pharmacokinetics after multiple oral administrations to psoriatic patients for 28 days
Format: in vivo, human
measurement.conditions: human, blood; 30 mg b.i.d. oral, Day 1, Mean ± SD
quantity: Cmax at 24 h (ng/mL)

1. CC[C@@H]1/C=C(\C)C[C@H](C)C[C@H](OC)[C@H]2O[C@@](O)(C(=O)C(=O)N3CCCC[C@H]3C(=O)O[C@H](/C(C)=C/[C@@H]3CC[C@H](Cl)[C@H](OC)C3)[C@H](C)[C@@H](O)CC1=O)[C@H](C)C[C@@H]2OC [pimecrolimus, 33-epichloro-33-desoxy-ascomycin] | 49.1

* * *

assay.explanation: Pharmacokinetics after multiple oral administrations to psoriatic patients for 28 days
Format: in vivo, human
measurement.conditions: human, blood; 10 mg q.d. oral, Day 1, Mean ± SD
Method: Table 4. Summary of Cmax and AUCτ Following Multiple Oral Administrations of Pimecrolimus to Psoriatic Patients for 28 Days In this study pimecrolimus was rapidly absorbed with a median tmax across all the dose groups and collection days of between 0.8 and 2.0 hours. […] There was no effect of age or weight on the apparent clearance of pimecrolimus.
quantity: Cmax at 24 h (ng/mL)

1. CC[C@@H]1/C=C(\C)C[C@H](C)C[C@H](OC)[C@H]2O[C@@](O)(C(=O)C(=O)N3CCCC[C@H]3C(=O)O[C@H](/C(C)=C/[C@@H]3CC[C@H](Cl)[C@H](OC)C3)[C@H](C)[C@@H](O)CC1=O)[C@H](C)C[C@@H]2OC [pimecrolimus, 33-epichloro-33-desoxy-ascomycin] | 25.9

* * *

assay.explanation: Pharmacokinetics after multiple oral administrations to psoriatic patients for 28 days
Type: in vivo, human
measurement.conditions: human, blood, po; 30 mg b.i.d., day 13; calculated assuming identical AUCτ for morning and evening doses; read-out: mean AUC at steady-state over 24 hours
quantity: AUC at 24 h

1) CC[C@@H]1/C=C(\C)C[C@H](C)C[C@H](OC)[C@H]2O[C@@](O)(C(=O)C(=O)N3CCCC[C@H]3C(=O)O[C@H](/C(C)=C/[C@@H]3CC[C@H](Cl)[C@H](OC)C3)[C@H](C)[C@@H](O)CC1=O)[C@H](C)C[C@@H]2OC [pimecrolimus, 33-epichloro-33-desoxy-ascomycin] | ~590 ng·h/mL

* * *

assay.explanation: Pharmacokinetics after multiple oral administrations to psoriatic patients for 28 days
Format: in vivo, human
measurement.conditions: human, blood; 10 mg q.d. oral, Day 28, Mean ± SD
quantity: AUC tau at 672 h (ng·h/mL)

1) CC[C@@H]1/C=C(\C)C[C@H](C)C[C@H](OC)[C@H]2O[C@@](O)(C(=O)C(=O)N3CCCC[C@H]3C(=O)O[C@H](/C(C)=C/[C@@H]3CC[C@H](Cl)[C@H](OC)C3)[C@H](C)[C@@H](O)CC1=O)[C@H](C)C[C@@H]2OC [pimecrolimus, 33-epichloro-33-desoxy-ascomycin] | 90.9

* * *

assay.explanation: Pharmacokinetics after multiple oral administrations to psoriatic patients for 28 days
Format: in vivo, human
measurement.conditions: human, blood; 5 mg q.d. oral, Day 1, Mean ± SD
quantity: AUC tau at 24 h (ng·h/mL)

1) CC[C@@H]1/C=C(\C)C[C@H](C)C[C@H](OC)[C@H]2O[C@@](O)(C(=O)C(=O)N3CCCC[C@H]3C(=O)O[C@H](/C(C)=C/[C@@H]3CC[C@H](Cl)[C@H](OC)C3)[C@H](C)[C@@H](O)CC1=O)[C@H](C)C[C@@H]2OC [pimecrolimus, 33-epichloro-33-desoxy-ascomycin] | 23.3

* * *

assay.explanation: Pharmacokinetics after multiple oral administrations to psoriatic patients for 28 days
Format: in vivo, human
measurement.conditions: human, blood; 30 mg b.i.d. oral, Day 1, Mean ± SD
quantity: AUC tau at 24 h (ng·h/mL)

1) CC[C@@H]1/C=C(\C)C[C@H](C)C[C@H](OC)[C@H]2O[C@@](O)(C(=O)C(=O)N3CCCC[C@H]3C(=O)O[C@H](/C(C)=C/[C@@H]3CC[C@H](Cl)[C@H](OC)C3)[C@H](C)[C@@H](O)CC1=O)[C@H](C)C[C@@H]2OC [pimecrolimus, 33-epichloro-33-desoxy-ascomycin] | 206

* * *

assay.explanation: Pharmacokinetics after multiple oral administrations to psoriatic patients for 28 days
Assay type: in vivo, human
measurement.conditions: human, blood; 10 mg q.d. oral, Day 1, Mean ± SD
quantity: AUC tau at 24 h (ng·h/mL)

1) CC[C@@H]1/C=C(\C)C[C@H](C)C[C@H](OC)[C@H]2O[C@@](O)(C(=O)C(=O)N3CCCC[C@H]3C(=O)O[C@H](/C(C)=C/[C@@H]3CC[C@H](Cl)[C@H](OC)C3)[C@H](C)[C@@H](O)CC1=O)[C@H](C)C[C@@H]2OC [pimecrolimus, 33-epichloro-33-desoxy-ascomycin] | 80.6

* * *

assay.explanation: Pharmacokinetics after multiple oral administrations to psoriatic patients for 28 days
Type: in vivo, human
measurement.conditions: human, blood, po; recorded after the final dose; read-out: terminal half-life
quantity: half-life

1. CC[C@@H]1/C=C(\C)C[C@H](C)C[C@H](OC)[C@H]2O[C@@](O)(C(=O)C(=O)N3CCCC[C@H]3C(=O)O[C@H](/C(C)=C/[C@@H]3CC[C@H](Cl)[C@H](OC)C3)[C@H](C)[C@@H](O)CC1=O)[C@H](C)C[C@@H]2OC [pimecrolimus, 33-epichloro-33-desoxy-ascomycin] | 50 to 100 h

* * *

assay.explanation: in vivo
Set-up: species or system rats
measurement.conditions: rat, skin; 2 oral doses of 25 mg/kg in an interval of 2 hours; 24 hours after the last dosing; read-out: skinlblood concentration ratio
quantity: Kp at 24 h

1) CC[C@@H]1/C=C(\C)C[C@H](C)C[C@H](OC)[C@H]2O[C@@](O)(C(=O)C(=O)N3CCCC[C@H]3C(=O)O[C@H](/C(C)=C/[C@@H]3CC[C@H](Cl)[C@H](OC)C3)[C@H](C)[C@@H](O)CC1=O)[C@H](C)C[C@@H]2OC [pimecrolimus, 33-epichloro-33-desoxy-ascomycin] | 36

* * *

assay.explanation: Pharmacokinetics after multiple oral administrations to psoriatic patients for 28 days
Type: in vivo, human
measurement.conditions: human, blood; 30 mg b.i.d. oral, Day 28, Mean ± SD
Description: Table 4. Summary of Cmax and AUCτ Following Multiple Oral Administrations of Pimecrolimus to Psoriatic Patients for 28 Days In this study pimecrolimus was rapidly absorbed with a median tmax across all the dose groups and collection days of between 0.8 and 2.0 hours. […] There was no effect of age or weight on the apparent clearance of pimecrolimus.
quantity: AUC tau at 672 h (ng·h/mL)

1) CC[C@@H]1/C=C(\C)C[C@H](C)C[C@H](OC)[C@H]2O[C@@](O)(C(=O)C(=O)N3CCCC[C@H]3C(=O)O[C@H](/C(C)=C/[C@@H]3CC[C@H](Cl)[C@H](OC)C3)[C@H](C)[C@@H](O)CC1=O)[C@H](C)C[C@@H]2OC [pimecrolimus, 33-epichloro-33-desoxy-ascomycin] | 281

* * *

assay.explanation: Pharmacokinetics after multiple oral administrations to psoriatic patients for 28 days
Type: in vivo, human
measurement.conditions: human, blood; 20 mg q.d. oral, Day 13, Mean ± SD
quantity: Cmax at 312 h

1. CC[C@@H]1/C=C(\C)C[C@H](C)C[C@H](OC)[C@H]2O[C@@](O)(C(=O)C(=O)N3CCCC[C@H]3C(=O)O[C@H](/C(C)=C/[C@@H]3CC[C@H](Cl)[C@H](OC)C3)[C@H](C)[C@@H](O)CC1=O)[C@H](C)C[C@@H]2OC [pimecrolimus, 33-epichloro-33-desoxy-ascomycin] | 55.3 ng/mL

* * *

assay.explanation: Pharmacokinetics after multiple oral administrations to psoriatic patients for 28 days
Assay type: in vivo, human
measurement.conditions: human, blood; 5 mg q.d. oral, Day 28, Mean ± SD
quantity: AUC tau at 672 h (ng·h/mL)

1. CC[C@@H]1/C=C(\C)C[C@H](C)C[C@H](OC)[C@H]2O[C@@](O)(C(=O)C(=O)N3CCCC[C@H]3C(=O)O[C@H](/C(C)=C/[C@@H]3CC[C@H](Cl)[C@H](OC)C3)[C@H](C)[C@@H](O)CC1=O)[C@H](C)C[C@@H]2OC [pimecrolimus, 33-epichloro-33-desoxy-ascomycin] | 35.5

The measured values listed here are drawn from patent EP1649856A2.
